target-system: RORα (Homo sapiens, UniProt P35398)
Sequence (P35398 1-556 isoform P35398-1): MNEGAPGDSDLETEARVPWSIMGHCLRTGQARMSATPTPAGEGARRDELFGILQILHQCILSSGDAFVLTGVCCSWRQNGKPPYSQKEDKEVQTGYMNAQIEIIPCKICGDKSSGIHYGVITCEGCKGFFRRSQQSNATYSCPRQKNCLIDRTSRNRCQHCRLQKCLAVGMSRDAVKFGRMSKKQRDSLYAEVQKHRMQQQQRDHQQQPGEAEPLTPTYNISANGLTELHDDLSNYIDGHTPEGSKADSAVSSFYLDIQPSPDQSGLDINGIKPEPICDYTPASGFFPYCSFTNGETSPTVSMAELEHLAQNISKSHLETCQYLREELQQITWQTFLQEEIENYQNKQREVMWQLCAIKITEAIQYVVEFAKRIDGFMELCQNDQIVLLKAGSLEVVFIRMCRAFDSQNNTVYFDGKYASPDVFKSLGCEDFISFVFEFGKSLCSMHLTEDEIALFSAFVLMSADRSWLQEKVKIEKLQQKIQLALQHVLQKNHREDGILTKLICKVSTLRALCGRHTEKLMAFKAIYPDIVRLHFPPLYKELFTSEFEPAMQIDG
experiment-description: RORE reporter transcription in cells partially depleted of cholesterol (HPCD plus lovastatin, LDL-free serum)
run-parameters: HPCD and lovastatin treated cells, compared to vehicle
value-type: Transcription of the RORE reporter in response to compound (in words)

>  <compound>
CC(C)CCC[C@@H](C)[C@H]1CC[C@H]2[C@@H]3CC=C4C[C@H](O)CC[C@]4(C)[C@H]3CC[C@]12C [Epicholesterol, 5-Cholesten-3α-ol]

>  <experimental-result>
stimulated

$$$$
>  <compound>
CC(C)CCC[C@@H](C)[C@H]1CC[C@H]2[C@@H]3CC[C@H]4C[C@@H](O)CC[C@]4(C)[C@H]3CC[C@]12C [Cholestanol]

>  <experimental-result>
stimulated

$$$$
>  <compound>
CC(C)CCC[C@@H](C)[C@H]1CC[C@H]2[C@@H]3CC=C4C[C@@H](O)CC[C@]4(C)[C@H]3CC[C@]12C [Cholesterol, cholest-5-en-3beta-ol]

>  <experimental-result>
stimulated

$$$$
